Value source: PubChem BioAssay (Tox21)

- protocol: qHTS assay to identify small molecule antagonists of the estrogen related receptor signaling pathway with the pleiotropic PPARgamma coactivator (PGC) from Tox21 10K library - cell viability counter screen (AID 1224840); note: nearly all actives have a fitted effect of over 40% in size
- assay-conditions: PGC/ERR reporter cells viability, CellTiter-Fluor, 17.5 h; series mostly up to 92.4 µM
Records with an inconclusive call do not appear. The source made the active and inactive calls. Calls come from the whole dose curve; as a rule, active = well fitted cell-killing curve with a large enough effect in the repeat runs (not every such curve was filed as active); inconclusive = weak or mixed curves, or effect the other way; inactive = no such curve, though single readings can be large or run the other way.
Please reply with one of these outcomes: active, inactive

compound: Cc1oc(-c2ccccc2)nc1CCC(=O)c1ccc(CC2SC(=O)NC2=O)cc1 (stereo unspecified)
answer-label: inactive

# input How was CNc1ccc(O)cc1 classified in this test?
# output active

# input How was Cc1ccc(-n2nc(C(C)(C)C)cc2NC(=O)Nc2ccc(OCCN3CCOCC3)c3ccccc23)cc1 classified in this test?
# output inactive

# input How was Oc1ccc2c(c1)-c1ccccc1C2 classified in this test?
# output inactive

# input How was Cc1cccc(CN2CCN(C(c3ccccc3)c3ccc(Cl)cc3)CC2)c1 (stereo unspecified) classified in this test?
# output inactive

# input How was C/C=C(\C)C(=O)OCc1ccccc1 classified in this test?
# output inactive

###

- assay-system: Vitamin D3 receptor (Homo sapiens)
- protocol: qHTS assay to identify small molecule antagonists of the vitamin D receptor (VDR) signaling pathway (AID 743223)
- assay-conditions: VDR-UAS-bla HEK293T, beta-lactamase FRET ratio, 16 h; series mostly up to 61 µM
Inconclusive results are not listed. Activity calls are given as the source filed them. Calls come from the whole dose curve; as a rule, active = well fitted inhibition curve with a large enough effect in the signal ratio in the repeat runs (not every such curve was filed as active); inconclusive = weak or mixed curves, or effect the other way; inactive = no such curve, though single readings can be large or run the other way; the % refers to the signal ratio.
Please reply with one of these outcomes: Yes = active, No = inactive

Example cases with answers are listed next.
compound: CCOC(=O)O[C@]1(C(=O)OCCl)CC[C@H]2[C@@H]3CCC4=CC(=O)C=C[C@]4(C)[C@H]3[C@@H](O)C[C@@]21C
answer-label: No
//
compound: C[C@]12CCC(=O)C=C1CC[C@@H]1[C@@H]2[C@@H](O)C[C@@]2(C)[C@H]1CC[C@]2(O)C(=O)COC(=O)CCC(=O)O
answer-label: No
//
compound: CO[Si](CCCNc1ccccc1)(OC)OC
answer-label: No
//
compound: O=C(c1ccc(O)cc1O)c1ccc(O)cc1O
answer-label: No
//
compound: CCC(N)(CO)CO
answer-label: No
//
compound: CCCC1O[C@@H]2C[C@H]3[C@@H]4CCC5=CC(=O)C=C[C@]5(C)[C@H]4[C@@H](O)C[C@]3(C)[C@]2(C(=O)CO)O1 (stereo not given in full)
answer-label: No
//
compound: O=C(NOCC1CC1)c1ccc(F)c(F)c1Nc1ccc(I)cc1Cl
answer-label: No
//
compound: CCCCCCCCCCCCc1ccc(O)cc1
answer-label: Yes

# input How was CN(C)c1ccc(C2(c3ccc(N(C)C)cc3)OC(=O)c3cc(N(C)C)ccc32)cc1 classified in this test?
# output No

# input How was C[n+]1ccn(Cc2ccccc2)c1 classified in this test?
# output No

###

- protocol: qHTS assay for small molecule disruptors of the mitochondrial membrane potential - cell viability (AID 720634);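 note: human HepG2 liver cancer cells; % is set by controls: 0 for no effect and ±100 for the full control effect; nearly all actives have a fitted effect of over 20% in size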
- assay-conditions: HepG2 viability, ATP luminescence (CellTiter-Glo), 1 h; series mostly up to 83.2 µM
Records with an inconclusive call do not appear. The source made the active and inactive calls. The call rests on the fitted dose curve.
Please reply with one of these outcomes: True for active, False for inactive

Example cases with answers are listed next.
compound: Oc1ccc2cc(SSc3ccc4cc(O)ccc4c3)ccc2c1
answer-label: False

compound: CCCCCOC(=O)CCCC
answer-label: False

compound: CCCCCCCCCCCCCCCC(=O)OC[C@H](O)[C@H]1OC(=O)C(O)=C1O
answer-label: False

compound: Cc1c(C)c2c(c(C)c1OC(=O)CCC(=O)O)CC[C@@](C)(CCC[C@H](C)CCC[C@H](C)CCCC(C)C)O2
answer-label: False

# input How was CCCCC(CC)COC(=O)c1ccccc1C(=O)O (stereo not drawn) classified in this test?
# output False

# input How was Cn1cc(C(=O)[C@@H]2CCc3nc[nH]c3C2)c2ccccc21 classified in this test?
# output False

# input How was O=C(c1ccc(O)cc1O)c1ccc(O)cc1O classified in this test?
# output False

# input How was Cc1cc(=O)oc2cc(N(C)C)ccc12 classified in this test?
# output False

# input How was CCCN(CCC)C(=O)C(CCC(=O)OCCCN1CCN(CCOC(=O)Cc2c(C)n(C(=O)c3ccc(Cl)cc3)c3ccc(OC)cc23)CC1)NC(=O)c1ccccc1 (stereo not drawn) classified in this test?
# output False

###

- assay-system: Cytochrome P450 2C19 (Homo sapiens) (UniProt P33261)
- Sequence (P33261 whole entry, looked up): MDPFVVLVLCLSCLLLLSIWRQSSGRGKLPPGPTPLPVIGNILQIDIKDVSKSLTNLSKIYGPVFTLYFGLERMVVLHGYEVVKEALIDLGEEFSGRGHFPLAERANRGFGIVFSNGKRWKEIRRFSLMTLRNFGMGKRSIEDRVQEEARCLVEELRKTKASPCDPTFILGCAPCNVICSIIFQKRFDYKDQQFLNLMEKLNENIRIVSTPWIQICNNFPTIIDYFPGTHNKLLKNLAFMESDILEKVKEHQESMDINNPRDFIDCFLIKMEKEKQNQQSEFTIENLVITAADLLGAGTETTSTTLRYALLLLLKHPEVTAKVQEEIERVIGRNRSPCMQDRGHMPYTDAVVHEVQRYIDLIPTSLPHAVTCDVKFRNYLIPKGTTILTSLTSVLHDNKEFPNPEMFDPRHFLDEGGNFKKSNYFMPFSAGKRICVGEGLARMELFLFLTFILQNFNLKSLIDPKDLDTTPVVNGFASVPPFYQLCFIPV
- protocol: Cytochrome P450 Family 2 Subfamily C Member 19 (CYP2C19) small molecule antagonists: luciferase reporter qHTS assay (AID 1671197); note: nearly all actives have a fitted effect of over 65% in size
- assay-conditions: P450-Glo CYP2C19 enzyme, luciferin luminescence, 1 h; series mostly up to 52.9 µM
Records with an inconclusive call do not appear. Activity calls are given as the source filed them. The call rests on the fitted dose curve; in most records, active means well fitted inhibition curve with a large enough effect in the repeat runs; inconclusive means weak or mixed curves; inactive means no such curve, though single readings can be large or run the other way.
Please reply with one of these outcomes: active, inactive

Example cases with answers are listed next.
compound: CN(C)C(=O)C1(N2CCCCC2)CCN(CC[C@@]2(c3ccc(Cl)c(Cl)c3)CN(C(=O)c3ccccc3)CCO2)CC1
answer-label: active
//
compound: CC(C)n1nc(-c2cc3cc(O)ccc3[nH]2)c2c(N)ncnc21
answer-label: active

# input How was CCCC(C)c1ccccc1O (stereo not given) classified in this test?
# output inactive

# input How was Fc1ccc([C@@H]2CCNC[C@H]2COc2ccc3c(c2)OCO3)cc1 classified in this test?
# output inactive

# input How was CC(=O)S[C@@H]1CC2=CC(=O)CC[C@]2(C)[C@H]2CC[C@@]3(C)[C@@H](CC[C@@]34CCC(=O)O4)[C@H]12 classified in this test?
# output active

###

- assay-system: Cytochrome P450 2D6 (Homo sapiens) (UniProt P10635)
- Sequence (P10635 whole entry, looked up): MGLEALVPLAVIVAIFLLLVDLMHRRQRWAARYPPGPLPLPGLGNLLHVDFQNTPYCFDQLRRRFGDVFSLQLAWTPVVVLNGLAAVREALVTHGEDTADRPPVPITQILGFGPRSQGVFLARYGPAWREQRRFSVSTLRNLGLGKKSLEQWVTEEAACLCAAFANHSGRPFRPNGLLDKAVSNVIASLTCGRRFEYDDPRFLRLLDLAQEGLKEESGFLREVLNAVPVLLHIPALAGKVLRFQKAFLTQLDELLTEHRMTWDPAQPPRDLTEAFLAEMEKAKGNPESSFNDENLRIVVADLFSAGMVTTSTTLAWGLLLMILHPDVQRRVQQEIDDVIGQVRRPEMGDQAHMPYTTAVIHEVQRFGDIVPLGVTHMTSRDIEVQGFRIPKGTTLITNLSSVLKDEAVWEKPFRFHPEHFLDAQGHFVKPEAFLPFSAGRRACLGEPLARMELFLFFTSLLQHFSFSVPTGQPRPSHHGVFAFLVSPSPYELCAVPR
- protocol: Cytochrome P450 Family 2 Subfamily D Member 6 (CYP2D6) small molecule antagonists: luciferase reporter qHTS assay (AID 1671196); note: nearly all actives have a fitted effect of over 50% in size
- assay-conditions: P450-Glo CYP2D6 enzyme assay, luciferin luminescence, 1 h; series mostly up to 115 µM
Records with an inconclusive call do not appear. Activity calls are given as the source filed them. Calls come from the whole dose curve; as a rule, active = well fitted inhibition curve with a large enough effect in the repeat runs; inconclusive = weak or mixed curves; inactive = no such curve, though single readings can be large or run the other way.
Please reply with one of these outcomes: active, inactive

Example cases with answers are listed next.
compound: CCCCCCCCCCCC[N+](C)(C)CCCCCCCCCCCC
answer-label: active

compound: Cc1nc(-c2ccc3c(c2)CCN(CCC2CCC(NC(=O)/C=C/c4ccc(F)cc4)CC2)CC3)no1 (stereo not drawn)
answer-label: inactive

Turning to the following compound.
# input How was Clc1ccc2nsnc2c1NC1=NCCN1 classified in this test?
# output active

###

- protocol: qHTS assay to identify small molecule agonists of H2AX (AID 1224845)
- assay-conditions: CHO-K1 phospho-H2AX Ser139 HTRF, 3 h; series mostly up to 154 µM
- Source text: National Center for Advancing Translational Sciences [NCATS] NIH Chemical Genomics Center [NCGC] U.S. Environmental Protection Agency [EPA] National Institutes of Environmental Health Sciences [NIEHS] National Toxicology Program [NTP] U.S. Food and Drug Administration [FDA] HTRF phospho-H2AX (Ser139) assay (Cisbio Bioassays, US) enables the quantitative detection of the histone variant H2AX when phosphorylated on serine 139. […]
Results filed as inconclusive are left out. Active and inactive are the calls of the source. Calls come from the whole dose curve; as a rule, active = well fitted activation curve with a large enough effect in the signal ratio in the repeat runs (not every such curve was filed as active); inconclusive = weak or mixed curves; inactive = flat fitted curve, though single readings scatter; the % refers to the signal ratio.
Please reply with one of these outcomes: 1 (yes) for active, 0 (no) for inactive

compound: CCc1cc(SCc2sc(-c3ccc(C(F)(F)F)cc3)nc2CN2CCN(c3ccc(OC)cc3)CC2)ccc1OCC(=O)O
answer-label: 1 (yes)

Turning to the following compound.
# input How was Oc1ccc2c(c1)-c1ccccc1C2 classified in this test?
# output 0 (no)

###

- protocol: qHTS assay to identify small molecule antagonists of the estrogen related receptor (ERR) signaling pathway from Tox21 library - cell viability counter screen (AID 1224834); note: nearly all actives have a fitted effect of over 30% in size
- assay-conditions: ERR reporter cells viability, CellTiter-Fluor, 17.5 h; series mostly up to 92.4 µM
Records with an inconclusive call do not appear. Calls of active or inactive are those of the source. Calls follow the shape of the dose curve; as a rule, active = well fitted cell-killing curve with a large enough effect in the repeat runs; inconclusive = weak or mixed curves; inactive = flat fitted curve, though single readings scatter.
Please reply with one of these outcomes: active, inactive

compound: CCCCC(CC)COC(=O)c1ccccc1C(=O)O (stereo unspecified)
answer-label: inactive
--
compound: OC1(c2ccc(Cl)c(C(F)(F)F)c2)CCN(CCCC(c2ccc(F)cc2)c2ccc(F)cc2)CC1
answer-label: active
--
compound: CS(=O)(=O)CCNCc1ccc(-c2ccc3ncnc(Nc4ccc(OCc5cccc(F)c5)c(Cl)c4)c3c2)o1
answer-label: active
--
compound: Cc1cc(CCN2CCN(c3nsc4ccccc34)CC2)cc2c1NC(=O)CC2(C)C
answer-label: active
--
compound: C[C@@H](NCCCc1cccc(C(F)(F)F)c1)c1cccc2ccccc12
answer-label: active
--
compound: CC(C)(C)CC(C)(C)c1ccc(O)c(Cc2ccc(Cl)cc2Cl)c1
answer-label: active

# input How was Cc1[nH]nc2c1N=C(c1ccccc1Cl)c1cc([N+](=O)[O-])ccc1N2 classified in this test?
# output active

# input How was O=C1Cc2cc(CCN3CCN(c4nsc5ccccc45)CC3)c(Cl)cc2N1 classified in this test?
# output active

# input How was ON=C1CCCC1 classified in this test?
# output active

# input How was CCC1=C[C@@H]2CN(C1)Cc1c([nH]c3ccccc13)[C@@](C(=O)OC)(c1cc3c(cc1OC)N(C)[C@H]1[C@@](O)(C(=O)OC)[C@H](OC(C)=O)[C@]4(CC)C=CCN5CC[C@]31[C@@H]54)C2 classified in this test?
# output active

# input How was [O-][n+]1ccccc1SSc1cccc[n+]1[O-] classified in this test?
# output active

# input How was COc1cccc2c1C(=O)c1c(O)c3c(c(O)c1C2=O)C[C@@](O)(C(=O)CO)C[C@@H]3O[C@H]1C[C@H](N)[C@H](O[C@@H]2CCCCO2)[C@H](C)O1 classified in this test?
# output active

# input How was CCc1cc(Cc2cc(CC)cc(C(C)(C)C)c2O)c(O)c(C(C)(C)C)c1 classified in this test?
# output active

# input How was CCCN(CCC)c1c([N+](=O)[O-])cc(C(F)(F)F)c(N)c1[N+](=O)[O-] classified in this test?
# output active

# input How was c1ccc(CSCc2ccccc2)cc1 classified in this test?
# output inactive

# input How was CSc1cnc(C)cn1 classified in this test?
# output inactive
